FYI, the data here is from ChEMBL document CHEMBL4219147.

test system: L6; experiment: Activation of AMPK in differentiated Sprague-Dawley rat L6 myotube cells assessed as glucose consumption at 20 uM after 12 hrs by colorimetric assay (reference value: 100 +/- 1.8%); type: cell-based
# note: exactly 200% is not below, so it is NO; use YES for Activity strictly under it

COc1ccc(OC)c2c1CC1c3cc(Cc4ccccn4)sc3CCN1C2 (stereo not given): YES
COc1ccc(OC)c2c1CC1c3cc(Cc4ccc(Br)cc4)sc3CCN1C2 (stereo not given): NO
COc1ccc(OC)c2c1CC1c3cc(Cc4cccc(C)c4)sc3CCN1C2 (stereo not given): NO
CCCCc1cc2c(s1)CC1c3cc4c(cc3CCN1C2)OCO4 (stereo not given): NO
COc1ccc(OC)c2c1CC1c3cc(Cc4cc(OC)c(OC)c(OC)c4)sc3CCN1C2 (stereo not given): YES

With those in mind, consider the next compound.
Ask: Activity strictly < 200% for this compound? COc1ccc(OC)c2c1CC1c3cc(Cc4ccc(N5CCCCC5)cc4)sc3CCN1C2 (stereo not given)
Reply: NO
